The values you see were collected from the Human Domainome abundance scans (Beltran et al. 2025).

B1: Gamma-crystallin C, residues 91 to 170; numbered along this chain, P07315 (parent)
chain: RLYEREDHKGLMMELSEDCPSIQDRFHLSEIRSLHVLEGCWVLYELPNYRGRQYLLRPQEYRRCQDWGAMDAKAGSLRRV

Variants of: B1
Test: abundance fitness (aPCA) (normalised: wild type 0, dead -1); higher = more abundant; growth selection in yeast, the domain comes from the species named
Conditions: Homo sapiens

>  <sequence_change>
N48F

>  <abundance fitness>
0.077

$$$$
>  <sequence_change>
C64W

>  <abundance fitness>
-0.086

$$$$
>  <sequence_change>
Q59C

>  <abundance fitness>
-0.052

$$$$
>  <sequence_change>
Y44R

>  <abundance fitness>
-0.478

$$$$
>  <sequence_change>
L2G

>  <abundance fitness>
-0.922

$$$$
>  <sequence_change>
C64S

>  <abundance fitness>
-0.285

$$$$
>  <sequence_change>
R25L

>  <abundance fitness>
-0.184

$$$$
>  <sequence_change>
K73V

>  <abundance fitness>
-0.18

$$$$
>  <sequence_change>
S16E

>  <abundance fitness>
0.118

$$$$
>  <sequence_change>
G68D

>  <abundance fitness>
-0.679

$$$$
>  <sequence_change>
R5D

>  <abundance fitness>
-0.175

$$$$
